assay: APR_HepG2_CellLoss_24hr: Apredica 24-hour HepG2 Assay for Cell Loss (AID 2282908); settings: high-content imaging
Activity calls are given as the source filed them. The calls were made as follows: active = hit-call score of the fitted dose curve at least 0.9, where 1 is the maximum; inactive = score below 0.9.
Pick from active, inactive when you respond.

Illustrative cases are given below, each with its answer.
CCC(=C(c1ccc(O)cc1)c1ccc(OCCN(C)C)cc1)c1ccccc1 ... inactive
COc1cc(CCC(=O)CC(=O)CCc2ccc(O)c(OC)c2)ccc1O ... inactive
OC1CCCCC1 ... inactive

# evaluate next
So what was the verdict on Cc1oc(-c2ccccc2)nc1CCOc1ccc(C[C@H](Nc2ccccc2C(=O)c2ccccc2)C(=O)O)cc1 in this test?
active

###

assay: BSK_3C_uPAR: BioMAP Diversity Plus: 3C Assay for Urokinase-type plasminogen activator receptor (uPAR) Biomarker Activity (AID 2282998); settings: BioMAP 3C HUVEC, uPAR biomarker ELISA; actives raise or lower the signal
Active and inactive are the calls of the source. Rule for the calls: active = hit-call score of the fitted dose curve at least 0.9, where 1 is the maximum; inactive = score below 0.9.
Choose one outcome from this list and give only that: yes = active, no = inactive

A selection of reference data follows.
NCC(F)(F)C(F)(F)C(F)(F)C(F)(F)C(F)(F)C(F)(F)C(F)(F)F ... no
CCCCCCCC(=O)O ... no
CCCOC(=O)c1ccc(O)cc1 ... no

Hi, do you know how CCCCCCCCCCCCCCCS(=O)(=O)Oc1ccccc1 came out in this test?
no

Name the outcome recorded for CCCOc1sc(C(=O)N2CCC(c3cc(CN)ccc3F)CC2)c(C)c1Br in the assay.
yes

Check the results log: what was the call for c1ccc2c(c1)ccc1ccccc12 ?
no

Each compound tested received a call. Report the one for O=C(OCCOCCOC(=O)c1ccccc1)c1ccccc1 .
no
